# Tested on: MS2 coat protein
# assay info: apparent KD of MS2 coat protein; higher = weaker reporter binding
# condition notes: Eterna round: R107; input ligand: tryptophan 2.4 mM
recorded endpoint: apparent KD of MS2 coat protein (nM)
Express the result in nM but write the number alone.

Examples with answers:
>>> value_reported("ACAUGAGGAUCACCCAUGUUCAUGCGGGAAGGAGCGUGCGGAAGCACAGGUAGGUCGCCCUCAAUAUCUAACGUUACGUUCAUGA [#26 Same State - Arginine A]")
15.5
>>> value_reported("ACGAACGAUAGUGAUACCAGACGUACAUGAGGAUCACCCAUGUUAUACACAUGGUUUAUUGUCCCUUGGCAGCACGUUAAGUUCG [JR_ExcTheophyB_Sub005]")
289
>>> value_reported("AGGAAGACGAUGGAUACCAGACAACCAGGGAACAUGAGGAUCACCCAUGUGAUUGAAAGGGUCCCUUGGCAGCCAGAAGCCGUUG [theeternabot_sameState_MS2_Theo_B_31]")
130
>>> value_reported("CGCCGCGGGAGAAGGAGCGCGAUAACAUAACAUGAGGAUCACCCAUGUAAGAAAUUAAUCAUGCAGGUAGGUCGCUCCCGCGGCG [Same State Arginine B GF 4]")
22.5
>>> value_reported("UAUCCACAUGAGGAUCACCCAUGUUAGGAAGGAGCGGUGAAUGAACCAGGUAGGUCGCCUAGGUGAGGAUCAUCUAUGGAUUCGU [Exclusion - Arginine A (Freestyle 11)]")
31.7
>>> value_reported("AAAAUAAAGGCGGCCGCCACUAGAGUUAGGCAUAUGUACUGGGUAACAUGAGGAUCACCCAUGUAUAGGACCGGGCCAUAAUAAA [Same State - Tryptophan B (Freestyle 1)]")
36.5

*Q* Reported apparent KD of MS2 coat protein for MS2 coat protein, given GGAUGAAACUGAAGGAGCGAGAUCACAAGAUUGGGUCUAACAUGAGGAUCACCCAUGUAAUCUCAGGUAGGUCGCAGUGUCCCUU [Exclusion Arginine B GF 12] ?
*A* 31.6

*Q* Reported apparent KD of MS2 coat protein for MS2 coat protein, given ACGCGUCAAGAGUAAAAUCCGUCAAGUGAUACCAGCCACAACGUAGGCCCUUGGCAGCACAUGAGGAUCACCCAUGUAAUAAGGA [Gedigerace] ?
*A* 22.5

*Q* Reported apparent KD of MS2 coat protein for MS2 coat protein, given AAUAUAUAUCACGAACUGUGGUGUAUGUUCCGAGGACCGGUACGGCCGCCACUCGCGUGGUUCCACAUGAGGAUCACCCAUGUUG [XTryp A #8] ?
*A* 22.5

*Q* Reported apparent KD of MS2 coat protein for MS2 coat protein, given ACAUUAGUUGGCGAUACCAGCUAUAGGCCUUCUGGGCGACAUGAGGAUCACCCAUGUGAUGGCCCUUGGCAGCGCUGAUUGAUGU [SSTheo B #29] ?
*A* 182

*Q* Reported apparent KD of MS2 coat protein for MS2 coat protein, given GGGUGGUAGGCGGCCGCCACUGAUUUUCAUUUAUAGAUGACAUGAGGAUCACCCAUGUUUAUGUGCAGGACCGGGCCUGCUGUGG [aaaT] ?
*A* 78.2

*Q* Reported apparent KD of MS2 coat protein for MS2 coat protein, given AGUAGCUGCCGAAGGAGCGCCGUGUUCCUACAUGAGGAUCACCCAUGUAGCGUUGGGUUACGGCAGGUAGGUCGCGGCAGAUAGG [#18 Same State - Arginine B] ?
*A* 22.4

*Q* Reported apparent KD of MS2 coat protein for MS2 coat protein, given GUAAUUUAUUGAAGGAGCGUCGAAAAUGGGUAAACAUGAGGAUCACCCAUGUAAAGGGAACGACAGGUAGGUCGCAAUAGGUUAC [AstromonsSSArgB#29] ?
*A* 197

*Q* Reported apparent KD of MS2 coat protein for MS2 coat protein, given AUGCAACAUGAGGAUCACCCAUGUGGUGAUACCAGUCGACAAGUAGACCCUUGGCAGCACAGCCGAUAUCGAGAGAGAUUUUUGG [theeternabot_sameState_MS2_Theo_A_23] ?
*A* 824

*Q* Reported apparent KD of MS2 coat protein for MS2 coat protein, given ACAUGAGGAUCACCCAUGUUGAGCACAGAAGGAGCGUGAUUAAGCACAGGUAGGUCGCUGUACUUAUCGAGCGUUAGCUCGAUAC [JR_Nu_SSArginiA_Sub030] ?
*A* 22.8

*Q* Reported apparent KD of MS2 coat protein for MS2 coat protein, given UCGUGUAUAUCGGAUACCAGUGAAAUCGAUACAUGAGGAUCACCCAUGUGAGAGGAUGUACACCCUUGGCAGCUGUAUAUAUCUG [ll,lmullin] ?
*A* 20.4

*Q* Reported apparent KD of MS2 coat protein for MS2 coat protein, given ACCUAAGCCACAGAUACCAGAGUAAUAGGCCAAUUUCAAAACAUGAGGAUCACCCAUGUACUCCCUUGGCAGCUGCGAAUCGAAA [theeternabot_exclusion_MS2_Theo_B_30] ?
*A* 10.3

*Q* Reported apparent KD of MS2 coat protein for MS2 coat protein, given GGUGGCGUGACGGAUACCAGCCACCACCGCAAGACCACAUGAGGAUCACCCAUGUUGGGUGGCCCUUGGCAGCUGUCGUGCGGCG [#1 Same State - Theophylline B Attempt #19 (HarryS)] ?
*A* 110

*Q* Reported apparent KD of MS2 coat protein for MS2 coat protein, given CCUUAACAUGAGGAUCACCCAUGUCUGGAUACCAGAUACAGAUAAAUCCCUUGGCAGCCAAAAUAUGAAAGAAAUAAAAUAAGAA [theeternabot_sameState_MS2_Theo_A_29] ?
*A* 50.2

*Q* Reported apparent KD of MS2 coat protein for MS2 coat protein, given CUGCCAUGCAGAGAUACCAGUGAGCUCAGAACAUGAGGAUCACCCAUGUAGGUUGCCGAUCACCCUUGGCAGCUCUGCAUGGCAG [*$+%!] ?
*A* 29.6

*Q* Reported apparent KD of MS2 coat protein for MS2 coat protein, given UCGCCCGGGUCGGCCGCCACUGAGGUGAUAUGACAUGAGGAUCACCCAUGUUGUCAUGUGGAACAUAGGACCGGGACCCGGGCGA [Exclusion - Tryptophan B Attempt #2 (HarryS)] ?
*A* 17.8

*Q* Reported apparent KD of MS2 coat protein for MS2 coat protein, given ACUAGCGCACAUGAUACCAGCGACAUGAGGAUCACCCAUGUACGGCGUGUAUCGAAAGGUUGCCCUUGGCAGCAUGAUAGCGCUG [Cebiri] ?
*A* 14.5

====

# Test system: MS2 coat protein
# assay info: apparent KD of MS2 coat protein; higher = weaker reporter binding
# condition notes: Eterna round: R107; input ligand: theophylline 20 uM
Quick reference for apparent KD of MS2 coat protein among some sequences
Express the result in nM but write the number alone.

>>> value_reported("AAUAACAUGAGGAUCACCCAUGUAAAAGAUACCAGAGUGAUGAUCCUCCCUUGGCAGCUUAAUAACGCUAUUGAUUACAAUAGCG [Mat - Same State Theophlline A - Mod of Eli - D6]")
98.7
>>> value_reported("UGUAUGGACUGAAGGAGCGGGUAAUAAAUCUGAGGAUCACCCAGGUAAUAGGCGAAAGCCGCCCAGGUAGGUCGCAGUCCAUACU")
27.5

*Q* Which apparent KD of MS2 coat protein is listed for AGCCCAUUACAUGAGGAUCACCCAUGUGAUACCAGUCAGGAAACUGACCCUUGGCAGCGCAUGAGGAUCACCCAUGCGCUGGGCA [Omei Theo A Exc A v6] ?
*A* 11.7

*Q* Which apparent KD of MS2 coat protein is listed for UUGGUAGGACAGCUCAUAUAAGCAUGUGAUACCAGCUAGAAAACUAGCCCUUGGCAGCACUUUACAUGAGGAUCACCCAUGUCCC [EThA NP+V+V2 #2 +-Same Structure] ?
*A* 258

*Q* Which apparent KD of MS2 coat protein is listed for GUAUUCAUGACGGCCGCCACUGCAAGCCUCCUCAUGGCAGAUUGACAUGAGGAUCACCCAUGUCUCAGGACCGGGUCUGGCAUCC [theeternabot_sameState_MS2_Trp_B_43] ?
*A* 244

*Q* Which apparent KD of MS2 coat protein is listed for GGAUGCGGCACGGCCGCCACUGCGGUGGUGUGACAUGAGGAUCACCCAUGUUGUCAUGCGGCCCUUAGGACCGGGUGGCGUGUCC [#1 Exclusion - Tryptophan B Attempt #19 (HarryS)] ?
*A* 57.4

*Q* Which apparent KD of MS2 coat protein is listed for AGAGUUAGACAAAAGUCUAGCUCACCAGAAGGAGCGUCCGAAAGGACAGGUAGGUCGCUGGUACAUGAGCAUCAGCCAUGUUCCU [ArgAS 15 #OpenEnded #AlternativeMS2] ?
*A* 28

*Q* Which apparent KD of MS2 coat protein is listed for AUACAUGAGGAUCACCCAUGUAUAGUUGAAGGAGCGACCAGAGGGUCAGGUAGGUCGCAGCACAUGAGGAUCACCCAUGUAUUUU [#1 Exclusion - Arginine A Attempt #14 (Inspired by Pi)] ?
*A* 40.3

*Q* Which apparent KD of MS2 coat protein is listed for GCUACAUGAGGAUCACCCAUGUAUGCGAGCCGAGGACCGGUACGGCCGCCACUCGCUUAACAUGAGGAUCACCCAUGUUGCUCGC [SSTA DOUBLE!!! :-D #18] ?
*A* 36.2

*Q* Which apparent KD of MS2 coat protein is listed for UUAUGCAGGUCGGCCGCCACUACACACAUGAGGAUCACCCAUGUAGUUACUGGGUGAAGUGGCAGUAGGACCGGGACCUGCACAU [Brourdmod13] ?
*A* 739

*Q* Which apparent KD of MS2 coat protein is listed for GCAUCCUAGUCGGCCGCCACUGCAUCACCGGUCCUAGGUGAUCAACAUGAGGAUCACCCAUGUAGCAGGACCGGGACUAGGAUGC [(Trp1)-(MT)''-(MT)'-(Ms2)-(Trp2)_Design2] ?
*A* 320

*Q* Which apparent KD of MS2 coat protein is listed for UUGUGGCGCUCGGCCGCCACUCCGACAUGAGGAUCACCCAUGUUCUACAUGAGGAUCACCCAUGUGAGGACCGGGAGACACUUCC [Exclusion Tryptophan B GF13] ?
*A* 109
